Measured values drawn from ChEMBL document CHEMBL3124752 for this set.

# run-description: Fraction unbound in Sprague-Dawley rat plasma at 2 mg/kg, iv and 10 mg/kg, po
# Assay type: ADME, organism-based
# details: other: intravenous and oral
reported-property: fraction unbound
API note: the answer field is a bare number with no unit suffix.

INSERT INTO measurements (smiles_text, numeric_value) VALUES
  ('C[C@H]1COCCN1C[C@H]1CN(S(=O)(=O)c2cccs2)CCN1c1ccc([C@@](C)(O)C(F)(F)F)cc1', 0.037);

Next:
Return fraction unbound (reported value) for this compound: O=S(=O)(c1cccs1)N1CCN(c2ccc(C(O)(C(F)(F)F)C(F)(F)F)cc2)CC1
0.0062
